# Test system: dengue virus type 1
# procedure.text: Antiviral activity against Dengue virus 1 WestPac infected in human HuH7 replicon cells expressing Renilla luciferase and neomycin-resistance genes assessed as reduction in viral replication incubated for 48 hrs by luciferase reporter replicon-based assay
# Type: functional, organism-based
# study.conditions: Huh-7, 48 h
property.label: pEC50
Please treat pEC50 as minus the base-10 logarithm of the molar concentration.

- cpd.smiles: "CCCCCCCCCCN1C(=O)[C@]2(CC(=O)Nc3c2nnn3[C@@H](C)c2ccc(Cl)cc2)c2cc(Cl)ccc21"
  observed.result: 5.47
- cpd.smiles: "C[C@@H](c1ccc(Cl)cc1)n1nnc2c1NC(=O)C[C@]21C(=O)N(Cc2ccccc2)c2ccc(Cl)cc21"
  observed.result: 5.70
- cpd.smiles: "C[C@@H](c1ccc(Cl)cc1)n1nnc2c1NC(=O)C[C@]21C(=O)N(CCc2ccccc2)c2ccc(Cl)cc21"
  observed.result: 5.96
- cpd.smiles: "CC(C)N1C(=O)[C@]2(CC(=O)N(C(C)C)c3c2nnn3[C@@H](C)c2ccc(Cl)cc2)c2cc(Cl)ccc21"
  observed.result: 5.42
- cpd.smiles: "C[C@@H](c1ccc(Cl)cc1)n1nnc2c1NC(=O)C[C@]21C(=O)N(CC2CC2)c2ccc(Cl)cc21"
  observed.result: 5.51

Entry CCCCCCN1C(=O)[C@]2(CC(=O)Nc3c2nnn3[C@@H](C)c2ccc(Cl)cc2)c2cc(Cl)ccc21 has what pEC50?
6.08

Input C[C@@H](c1ccc(Cl)cc1)n1nnc2c1NC(=O)C[C@]21C(=O)N(CCCCCCN(C)C)c2ccc(Cl)cc21
5.82

----------
# procedure.text: Tmax in Sprague-Dawley rat at 20 mg/kg, po measured up to 24 hrs by LC-MS/MS analysis
# Format: ADME, organism-based
# study.conditions: in vivo
property.label: Tmax (h)
Numeric only. Scale: h

Entry CC(C)CCN1C(=O)[C@]2(CC(=O)Nc3c2nnn3[C@@H](C)c2ccc(Cl)cc2)c2cc(Cl)ccc21 has what Tmax?
1

----------
# reported pEC50; entries follow
# System: dengue virus type 1
# procedure.text: Antiviral activity against Dengue virus 1 WestPac infected in human HuH7 replicon cells expressing Renilla luciferase and neomycin-resistance genes assessed as reduction in viral replication incubated for 48 hrs by luciferase reporter replicon-based assay
# Assay type: functional, organism-based
# study.conditions: Huh-7, 48 h
Please treat pEC50 as minus the base-10 logarithm of the molar concentration.

- cpd.smiles: "COc1cc(CN2C(=O)[C@]3(CC(=O)Nc4c3nnn4[C@@H](C)c3ccc(Cl)cc3)c3cc(Cl)ccc32)cc(OC)c1"
  pEC50: 5.47
- cpd.smiles: "C[C@@H](c1ccc(Cl)cc1)n1nnc2c1NC(=O)C[C@]21C(=O)N(Cc2ccc(Cl)c(F)c2)c2ccc(Cl)cc21"
  pEC50: 5.82
- cpd.smiles: "C[C@@H](c1ccc(Cl)cc1)n1nnc2c1NC(=O)C[C@]21C(=O)N(CCCCCCCCCCN(C)C)c2ccc(Cl)cc21"
  pEC50: 5.57

Entry CC(C)CCN1C(=O)[C@]2(CC(=O)Nc3c2nnn3[C@@H](C)c2ccc(Cl)cc2)c2cc(Cl)ccc21 has what pEC50?
6.11

Input C=CCN1C(=O)[C@]2(CC(=O)Nc3c2nnn3[C@@H](C)c2ccc(Cl)cc2)c2cc(Cl)ccc21
5.68

Input CCN1C(=O)[C@]2(CC(=O)Nc3c2nnn3[C@@H](C)c2ccc(Cl)cc2)c2cc(Cl)ccc21
5.60

Input C[C@@H](c1ccc(Cl)cc1)n1nnc2c1NC(=O)C[C@]21C(=O)N(Cc2ccc(F)cc2)c2ccc(Cl)cc21
5.30

Input C[C@@H](c1ccc(Cl)cc1)n1nnc2c1NC(=O)C[C@]21C(=O)N(Cc2cc(C(C)(C)C)cc(C(C)(C)C)c2)c2ccc(Cl)cc21
5.34

Origin of values: ChEMBL document CHEMBL4414551
